Examples of compounds with documented composite z-score follow.
test: small-molecule microarray binders of probe aShh, primary screen, biochemical, biotinylated probe, 635/667 nm fluorescence (AID 1114); conditions: higher = more signal;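 note: probe is biotin-labelled aShh protein from a stem cell growth factor screen; measures binding of labelled protein to compounds printed on the slide; score merges feature fluorescence at 667 nm with signal-to-noise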

Examples with their reported composite z-score follow.
COc1c(C)cc(-c2cc3c(c(-c4ccc(Oc5ccccc5)cc4)n2)[Si](C(C)C)(C(C)C)OC3)cc1C -0.138
COC(=O)c1c(CC[C@@H](CO)NC(=O)N[C@@H](Cc2ccccc2)Cn2cc(C3(O)CCCCC3)nn2)oc(C(C)=O)c1C(=O)OC -0.142
[N-]=[N+]=NCc1ccccc1[C@H]1OC(c2ccc(OCCCO)cc2)=N[C@@]1(CCS(=O)(=O)c1ccccc1)C(=O)N1CCOCC1 0.356

Shifting focus to the compound that follows.
Recorded composite z-score for C=CCNC(=O)[C@@H]1[C@H]2C(=O)O[C@H](c3ccccc3)[C@H](c3ccccc3)N2[C@H](c2ccc(OCCO)cc2)[C@@]12C(=O)Nc1ccccc12 , please?
0.0469

----------
experiment: small-molecule binders of probe aInhba, primary screen, biochemical, small-molecule microarray, 635/667 nm fluorescence (AID 1148); details: higher = more signal;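 note: score merges 667nm spot fluorescence with signal-to-noise for antibody binding to printed compounds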
Some compounds, each annotated with its measured composite z-score.
The answer should be a number; do not append a unit.

Compound	Endpoint Result
CN(C)CCCNC(=O)[C@@]1(Cc2ccccc2I)c2ccccc2C(=O)N(Cc2ccccc2C(F)(F)F)[C@H]1c1ccc(CO)cc1	-0.162

Given C=CCOC(=O)[C@H]1[C@@H]2C(=O)O[C@@H](c3ccccc3)[C@@H](c3ccccc3)N2[C@@H](c2ccc(OCCOC(=O)[C@@H]3C[C@@H]4C(=O)NCC(=O)N4[C@@H]3c3ccc(O)cc3)cc2)[C@]12C(=O)Nc1ccccc12 , state its recorded composite z-score.
-0.0221

Return reported composite z-score; argument: O=C1OCC=C[C@H]2OC34C=CCN(c5ccc(Cl)cc5)C(=O)[C@H]3N(CCCCCCO)C(=O)[C@@H]4[C@@H]12 (stereo partly drawn)
-0.0494

----------
test: CREB reporter modulators under forskolin, primary screen, cell-based, PC12, CRE-LacZ reporter, forskolin-stimulated (AID 1146); settings: luminescence, 4.5 h, higher = more signal, called active from +8 up or from −8 down;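 note: PC12 cells with 6xCRE LacZ reporter stimulated by forskolin 10 µM; beta-galactosidase reporter signal reflecting CREB driven transcription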
Mark class 0 for z-score values under -0.09, and class 1 for everything at or above.

Field: example entries. Status: answers known.
Compound	Qualitative Label
CC(C)(C)N1CC=CC23O[C@@H]4C=CCOC(=O)[C@@H]4[C@H]2C(=O)N(CCCCCO)[C@@H]3C1=O (some centres not stated)	class 1
COCCOC(=O)N1C(=O)[C@@]2(c3cc(C#CCC(C(=O)OC)C(=O)OC)ccc31)[C@H](c1ccccc1OCCO)N1[C@H](c3ccccc3)[C@H](c3ccccc3)OC(=O)[C@H]1[C@@H]2C(=O)N1CCc2cc(OC)c(OC)cc2C1	class 0
CCCNC(=O)[C@@H]1c2ccccc2C(=O)N(Cc2ccccc2)[C@H]1c1ccc(CO)cc1	class 1
O=C1c2ccccc2[C@@]2(Cc3ccccc3N(Cc3ccccc3)C2=O)[C@H](c2ccc(CO)cc2)N1C1CCCCC1	class 1
C[C@]1(C(=O)NCc2ccccc2)c2ccccc2C(=O)N(Cc2ccc(OC(F)(F)F)cc2)[C@H]1c1ccc(CO)cc1	class 0

Does the compound C=C[C@@H](COC(C)=O)N(Cc1ccc([N+](=O)[O-])cc1)S(=O)(=O)c1ccc(Br)cc1 have recorded z-score that is -0.09 or more?
class 1

Sourced from PubChem BioAssay
